Reported values of Potency for individual entries
# test protocol: Quantitative High-Throughput drug screen in 47 multiple myeloma cell lines against the NCATS MIPE library collection: INA6_PLB cell viability assay (AID 1918965; further: potency means the concentration at half of the fitted maximal effect; nearly all actives have a fitted effect of over 55% in size)
# cond: INA6 myeloma viability, CellTiter-Glo ATP luminescence, 48 h; series mostly up to 45.8 µM
# Excerpt: PI: Beverly A. Mock Ph.D. Laboratory of Cancer Biology and Genetics, Center for Cancer Research, National Cancer Institute, National Institute of Health, Bethesda, Maryland […] 5; Detector; 425V; Luminescence; Viewlux PerkinElmer. […] 1. […] Briefly, the corresponding myeloma cell lines were screened in 1,536-well plates with 500 cells, 5-uL per well for inhibition of cell viability (assessed by measuring ATP levels with CellTiterGlo). […]
Results filed as inconclusive are left out. Activity calls are given as the source filed them. The call rests on the fitted dose curve; in most records, active means well fitted cell-killing curve with a large enough effect; inconclusive means small, poorly fitted or top-dose-only effect, or effect the other way; inactive means no such curve, though single readings can be large or run the other way.

O=C(Nc1nc2cccc(-c3ccc(CN4CCS(=O)(=O)CC4)cc3)n2n1)C1CC1 3320 nM (active)

Q) Sample `COc1cc2c(Oc3ccc(-c4cnc(Nc5ccc(F)cc5)n(C)c4=O)cc3F)ccnc2cc1OCCCN1CCOCC1` — what was its Potency?
A) 14800 nM (active)

Q) Sample `O=C(Nc1cc(C(F)(F)F)cc(C(F)(F)F)c1)c1cc(Cl)ccc1O` — what was its Potency?
A) 1660 nM (active)

###

# test protocol: Identifying Small Molecule Inhibitors of Pancreatic Cancer Stem Cells (A278, Adherent) (AID 1259361);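 further: viability read after 48 h compound exposure; nearly all actives have a fitted effect of over 35% in size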
# cond: series mostly up to 46.1 µM
Inconclusive results are not listed. Active and inactive are the calls of the source. The call rests on the fitted dose curve; in most records, active means well fitted cell-killing curve with a large enough effect; inconclusive means small, poorly fitted or top-dose-only effect; inactive means flat fitted curve, though single readings scatter.
Write down the outcome that applies. Available outcomes: true (1) for active, false (0) for inactive

// below: answered molecules
C1=CCOCc2cc(ccc2OCCN2CCCC2)Nc2nccc(n2)-c2cccc(c2)OCC1 true (1)
Cn1cncc1[C@@](N)(c1ccc(Cl)cc1)c1ccc2c(c1)c(-c1cccc(Cl)c1)cc(=O)n2C true (1)
CC(=O)OCC(=O)[C@@]1(O)[C@H](C)C[C@H]2[C@@H]3C=C(C)C4=Cc5c(cnn5-c5ccccc5)C[C@]4(C)[C@@H]3[C@@H](O)C[C@@]21C true (1)
CN1CCN(c2cc(C(=O)Nc3ccc4c(c3)-c3c(c(C(N)=O)nn3-c3ccc(F)cc3)CC4)c(Cl)cn2)CC1 true (1)
O=C(NCCS(=O)(=O)c1ccc(C(F)(F)F)cn1)c1ccc(Cl)cc1 false (0)
COc1cc2ncnc(Nc3ccc(F)c(Cl)c3)c2cc1NC(=O)C=CCN1CCCCC1 true (1)

Now consider the entry below.
Q) In this assay, the call recorded for `NC(=O)Nc1cc(-c2cccc(F)c2)sc1C(=O)N[C@H]1CCCNC1` was what?
A) true (1)

###

# Test system: CAOV3
# test protocol: Primary qHTS to identify gynecologic anti-cancer compounds using libraries of approved drugs and bioactive compounds (AID 1345084); further: nearly all actives have a fitted effect of over 55% in size
# cond: Gynecologic cancer cell panel viability, ATPlite luminescence, 48 h; series mostly up to 57.5 µM
Inconclusive results are not listed. Active and inactive are the calls of the source. Calls follow the shape of the dose curve; as a rule, active = well fitted cell-killing curve with a large enough effect; inconclusive = small, poorly fitted or top-dose-only effect, or effect the other way; inactive = flat fitted curve, though single readings scatter.
Write down the outcome that applies. Available outcomes: 1 for active, -1 for inactive

COc1cccc2nc(-c3cccs3)nc(NN3C(=O)C=C(C)C3=O)c12 1
C=CC(=O)Nc1cc2c(Nc3ccc(F)c(Cl)c3)ncnc2cc1OCCCN1CCOCC1 1
CS(=O)(=O)c1ccc(-c2cnc(N)c(C(=O)Nc3ccccc3)n2)cc1 -1

Q) In this assay, the call recorded for `OCCCNc1cc(-c2ccnc(Nc3cccc(Cl)c3)n2)ccn1` was what?
A) -1

Q) In this assay, the call recorded for `Cn1cc(-c2ccncc2)c(-c2ccc(OCc3ccc4ccccc4n3)cc2)n1` was what?
A) -1
